The reported measurements were obtained from ChEMBL document CHEMBL4428106.

Measurement Notes: Inhibition of baker's yeast alpha-glucosidase using p-nitrophenyl-alpha D-glucopyranoside as substrate preincubated for 15 mins followed by substrate addition measured after 30 mins by spectrophotometric analysis
Design: species or system Saccharomyces cerevisiae
Endpoint Label: IC50 (µM)

• CCOc1ccccc1Nc1nc2ccccc2o1 = 65
• c1ccc(Oc2ccc(Nc3nc4ccccc4o3)cc2)cc1 = 32.5
• FC(F)(F)c1cccc(Nc2nc3ccccc3o2)c1 = 120

---

Measurement Notes: Inhibition of baker's yeast alpha-glucosidase using p-nitrophenyl-alpha D-glucopyranoside as substrate preincubated for 15 mins followed by substrate addition measured after 30 mins by spectrophotometric analysis
Parameters: species or system Saccharomyces cerevisiae
pIC50: −log10 of the molar value.
Endpoint Label: pIC50

* Clc1ccc(Nc2nc3ccccc3o2)c(Cl)c1 | 4.35
* Clc1ccc(Nc2nc3ccccc3o2)cc1 | 4.09
* Fc1ccc(Nc2nc3ccccc3o2)cc1 | 4.17
